Test system: Human papillomavirus type 1a protein E7 (residues 44-93)
testDescription: HPV1a E7 fragment binders on microarrays, primary screen, biochemical, small-molecule microarray, residues 44-93, 635 nm fluorescence (AID 1108);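 note: E7 fragment applied at 1 µg/mL in TBST for 1 h at 4 C; score combines spot fluorescence with its signal to noise ratio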
measurementContext: small-molecule microarray binding, fluorescence 635 nm; higher = more signal
Each record here notes measured composite z-score.
// no unit, no text: just the number

Known results for compounds:
CC(C)C(=C=CC[C@@H](O)c1ccccc1OCCO)CCO; -0.79
CC(C)(C)OC(=O)CC[C@@]12N=C(c3ccc(OCCCO)cc3)O[C@@H]1c1ccccc1N(CCS(=O)(=O)c1ccccc1)C2=O; 1.08
[N-]=[N+]=NCc1ccccc1[C@@H]1OC(c2ccc(OCCCO)cc2)=N[C@]1(Cc1ccccc1N=[N+]=[N-])C(=O)N1CCOCC1; 0.841
CN(C)C(=O)[C@]1(Cc2ccccc2CN=[N+]=[N-])N=C(c2ccc(OCCCO)cc2)O[C@@H]1c1ccccc1CN=[N+]=[N-]; 1.47
O=C1C2C=CC(C(O)c3ccc(F)cc3)N(Nc3ccccc3F)C2C(=O)N1c1ccccc1 (stereo not drawn); 1.18

[in] I would be grateful if you could share the reported composite z-score for O=C(NCc1ccccc1)[C@@]1(Cc2ccccc2)N=C(c2ccc(OCCCO)cc2)O[C@H]1c1ccccc1 .
[out] 1.11

[in] I would be grateful if you could share the reported composite z-score for COC(=O)[C@@]1(Cc2ccc(OC)cc2)[C@H]2c3cc(C(=O)N4CCCC4)n(Cc4ccsc4Br)c3C[C@H]2CN1C(=O)c1ccccc1 .
[out] 1.27

[in] I would be grateful if you could share the reported composite z-score for CCCCC(O)C1C=CC2C(=O)N(c3ccccc3)C(=O)C2N1Nc1ccccc1F (stereo not drawn) .
[out] 0.392
